tested on: SK-MEL-28 melanoma; assay: NCI-60 one-dose screen, 48 h; settings: 10 µM unless noted
Compounds without any hit were thinned out: in the full panel of roughly 83,000, 20% have a hit. Calls of active or inactive are those of the source. Rule for the calls: active = growth percent below 10; inactive = the rest.
# valid calls are 1 (active), 0 (inactive); nothing else

Query block: Call for entry O=S=Nc1ccc([N+](=O)[O-])cc1 :
Result block: 0

Query block: Call for entry COC1=CC(c2ccc[nH]2)=N/C1=C\c1[nH]c(C)c(C(=O)CCCCC(=O)NCc2ccccc2)c1C :
Result block: 0

Query block: Call for entry O=C1CCC/C=C\C[C@H]2C=CC(=O)/C2=C/C[C@H](C/C=C\CC(F)(F)F)O1 :
Result block: 1

Query block: Call for entry O=C(CCCn1c2c(sc3ccccc32)c(=O)n2nnc(-c3ccccc3)c12)NCCc1cnc[nH]1 :
Result block: 1

Query block: Call for entry O=C(Nc1cccc(C(F)(F)F)c1)Nc1ccc(OCc2nnc(-c3ccccc3)o2)c(F)c1 :
Result block: 0

Query block: Call for entry COC1=CC(c2ccc[nH]2)=N/C1=C\c1[nH]c(C)c(C(=O)CCCCC(=O)Nc2ccccc2)c1C :
Result block: 0

Query block: Call for entry C#CCC1(c2ccc(F)c(F)c2)NS(=O)(=O)c2ccccc21 (stereo not given) :
Result block: 0

Query block: Call for entry COc1cccc2cc(-c3cc4ccccc4[nH]3)c(=NC(=O)c3ccc(Cl)cc3)oc12 :
Result block: 0

Query block: Call for entry COc1ccc(C2CC(=O)Nc3c2c(C)nn3-c2nc3ccccc3[nH]2)cc1OC (stereo not given) :
Result block: 0

Query block: Call for entry CCSc1nnc(Nc2ccc(C(C)C)cc2)s1 :
Result block: 0

Query block: Call for entry COc1ccc(Cn2cc(COc3cc(/C=C/C(=O)c4cc(OC)c(OC)c(OC)c4)ccc3OC)nn2)cc1 :
Result block: 0

Query block: Call for entry COc1ccc(/C=c2\sc3n(c2=O)C2C(NN=3)N(C)C(=O)N2C)cc1 (stereo not given) :
Result block: 0

Query block: Call for entry COc1ccc2c(c1)NC(=O)CN2c1nc(NC2CC2)nc2ccccc12 :
Result block: 0

Query block: Call for entry COc1cc(NC(=O)c2cc3ccccc3nc2Nc2ccc(F)cc2)cc(OC)c1OC :
Result block: 0

Query block: Call for entry COc1cc(NC(=O)CSc2nc3ccc(C)cc3c(=O)n2-c2ccccc2)cc(OC)c1OC :
Result block: 0

Query block: Call for entry CCN1C(=S)N(CC)C2Nn3c(s/c(=C4\C(=O)N(C)c5ccccc54)c3=O)=NC21 (stereo not given) :
Result block: 0

Query block: Call for entry CCCCCCCCCCCCNC(=S)N/N=C/c1ccc(Cl)c(Cl)c1 :
Result block: 0

Query block: Call for entry O=S(=O)(NCCNc1cc(-c2cn(-c3ccccc3)nc2-c2ccccc2)ccn1)c1cccc2ccccc12 :
Result block: 0

Query block: Call for entry COc1ccc(-c2nc(-c3ccccc3)c(-c3ccccc3)n2C2CC2)cc1OC1CCCCC1 :
Result block: 0

Query block: Call for entry CC(C)N(Cc1ccc(CN(C(=O)CCl)C(C)C)cc1)C(=O)CCl :
Result block: 0

---

test system: DU-145 prostate; experiment: NCI-60 one-dose screen, 48 h (100 = growth as untreated, 0 = no growth, -100 = all killed); settings: 10 µM unless noted
This is part of a sample that, as a whole, favours compounds with a hit. Of some 83,000 tested, about 20% had one in any assay.
Please provide measured growth for the entries that follow.
The answer is to be given in %; state only the numeric part.

Simply: CCSc1nnc(NC(=O)Cc2ccc(Cl)cc2)s1 , DU-145 prostate, growth = 105

Simply: COC(=O)c1ccc(C)cc1 , DU-145 prostate, growth = 103

Simply: O=C(CCCn1c(=O)c2sc3ccccc3c2n2nnc(-c3ccccc3)c12)NCCc1cnc[nH]1 , DU-145 prostate, growth = -68.8

Simply: O=C(CNC1CCCCC1)Nc1ccc(-c2nc3ccccc3s2)cc1 , DU-145 prostate, growth = 89.3

Simply: CC(=O)OCC1OC(OCC2OC(OC(C)=O)C(OC(C)=O)C(OC(C)=O)C2OC(C)=O)C(OC(C)=O)C(OC(C)=O)C1OC(C)=O (stereo unspecified) , DU-145 prostate, growth = 110

Simply: COC(=O)CC/C(C)=N\Nc1ccc([N+](=O)[O-])cc1 , DU-145 prostate, growth = 85.5

Simply: Cc1oc2ncnc(Nc3ccccc3)c2c1C(=O)NCCO , DU-145 prostate, growth = 105

Simply: COc1ccc(S(=O)(=O)N2CCN(c3cc4c(cc3F)c(=O)c(C(=O)O)cn4C3CC3)CC2)c(OC)c1 , DU-145 prostate, growth = 98.3

Simply: CCC(c1ccc(OC)cc1)C(CC)c1ccc(OCC[N+](C)(C)C)cc1 (stereo unspecified) , DU-145 prostate, growth = 91.9

Simply: COc1cc(C(=O)CCCl)ccc1O , DU-145 prostate, growth = 107

Simply: O=C1OC(c2ccccc2)=N/C1=C\c1ccc([N+](=O)[O-])cc1 , DU-145 prostate, growth = 109

The reported numbers originate from PubChem BioAssay (NCI).
